B1: RPS21 (parent)
chain: AEVSWEPGRREGCDICAGKAGCPI

# Variants of: B1
# method summary: protein stability index of a GFP-peptide fusion (GPS, HEK-293T) (PSI 1-6); higher = more stable;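 further: lentivirally expressed fusions sorted by FACS into six bins by GFP to DsRed ratio, PSI derived from sequencing read proportions per bin multiplied by bin number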
# experimental setup: c terminus: a fixed tail appended
Classification scheme (protein stability index): group 1 (below 3), group 2 (3 to below 4), group 3 (4 or more)

{"columns": ["variant id", "label"],
 "data": [
  ["A20R", "group 1"],
  ["A17Y", "group 2"],
  ["I15E", "group 3"],
  ["G18Y", "group 1"],
  ["G21A", "group 2"],
  ["V3T", "group 2"],
  ["G21Q", "group 3"],
  ["R10S", "group 2"],
  ["G12Q", "group 1"],
  ["K19L", "group 1"]
]}
